Data origin: PubChem BioAssay AID602252

Please respond with reported inhibition for every item in the list.
# Target Desc: Golgi-associated PDZ and coiled-coil motif-containing protein (Homo sapiens) (UniProt Q9HD26)
# Assay Overview: untagged CAL PDZ binding inhibitors, primary screen, biochemical, fluorescence polarization, HTS (AID 602252);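 further: 0% = DMSO neutral control and 100% = excess unlabeled competitor peptide PRC23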
# Condition Parameters: purified CAL PDZ, TMR-peptide fluorescence polarization, 1 h; at 24.9 µM; active compounds read high
About 2,700 (0.9%) of roughly 300,000 compounds were called active. The entries come from a sample that favours actives as a whole.
Answers are plain numbers, in %.

A selection of reference data follows.
> print(dat)
                                    molecule  output.unit  value.measured
 1  O=C(OCC(=O)N1CCN(C(=O)c2ccco2)CC1)c1c(Cl)cccc1Cl            %          -0.558
 2  COc1cccc(C(=O)N2CCCC(CCC(=O)NCc3ccc(F)c(F)c3)C2)c1 (stereo unspecified)            %           -10.1
 3                        CN(O)C(=S)c1ccccc1            %           -3.98
 4               Cn1cccc1C(=O)N1CCc2ccccc2C1            %            91.2
 5  COc1cccc(CNC(=O)CCC2CCCN(C(=O)c3ccoc3C)C2)c1 (stereo unspecified)            %            56.3
 6  CN(c1ccc(C(=O)N2CCc3ccccc3C2)cc1)S(C)(=O)=O            %            3.47
 7          Cc1cnc(NC(=O)CSc2c(Cl)cccc2Cl)s1            %           -4.72
 8  COc1cccc(CNC(=O)CCC2CCCN(Cc3ccc(OC(F)F)cc3)C2)c1 (stereo unspecified)            %            7.33
 9  CSc1ncccc1C(=O)N1CCCC(CCC(=O)NCc2ccccc2F)C1 (stereo unspecified)            %            4.75
10  Cc1cccc(NC(=S)N2CCC(C(=O)c3ccc(F)cc3)CC2)c1            %           -2.74

Here is the next item to consider.
In: Could you tell me which inhibition is on file for Cc1ccc(-c2cc(C(=O)N3CCc4ccccc4C3)no2)cc1 ?
Out: 1.04

* * *

Please respond with reported inhibition for every item in the list.
# Target Desc: Golgi-associated PDZ and coiled-coil motif-containing protein (Homo sapiens)
# Assay Overview: untagged CAL PDZ binding inhibitors, primary screen, biochemical, fluorescence polarization, HTS (AID 602252);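 further: 0% = DMSO neutral control and 100% = excess unlabeled competitor peptide PRC23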
# Condition Parameters: purified CAL PDZ, TMR-peptide fluorescence polarization, 1 h; at 24.9 µM; active compounds read high
About 2,700 (0.9%) of roughly 300,000 compounds were called active. For the sample, actives were picked, then their nearest neighbours and some compounds at random.
Answers are plain numbers, in %.

> print(dat)
                                   compound  experimental.endpoint  value.measured
1  COc1cccc(NC(=O)N2CCC(NC(=O)C(Cc3cccc(C)c3)NC(C)=O)CC2)c1 (stereo not given)             inhibition            -5.2
2  CCCC(O)(c1ccccc1)C(c1ccccc1)c1ccccn1 (stereo not given)             inhibition           -2.63
3  COc1ccccc1CC(NC(C)=O)C(=O)NC1CCN(C(=O)Nc2ccccc2Cl)CC1 (stereo not given)             inhibition            78.3
4  CCOc1ccc(S(=O)(=O)Nc2nc3cc(OC)ccc3s2)cc1             inhibition             1.2

In: Give Golgi-associated PDZ and coiled-coil motif-containing protein (Homo sapiens) inhibition for O=C(O)c1cccc(S(=O)(=O)Nc2ccc(O)cc2Sc2nc3ccccc3s2)c1
Out: -1.01
